Value source: the supplement of paper PMC4466140

Exercise: for every item that follows, state its recorded SPOT peptide array binding signal intensity.
- target_under_test: ScRvs167
- protocol_notes: SPOT peptide array binding signal intensity (averaged, normalized) (arbitrary units (background-subtracted, floor 0; scale differs between SH3 domains)); higher = stronger binding of the SH3 domain to the peptide
Please respond with just the number, no unit label.

What SPOT peptide array binding signal intensity value was documented for this binder, `SSSSTPPTLPPRRIE` ? 3870

What SPOT peptide array binding signal intensity value was documented for this binder, `AVPPPPPPPPLPESL` ? 2.33

Entry `LPMNIQPDLPPRKIM` has what SPOT peptide array binding signal intensity? 2170

Please give the measured SPOT peptide array binding signal intensity for this binder: `RKNRAPPQRPRFNRD` 238

Fill in: SPOT peptide array binding signal intensity of `LLIRWLILMPLVGSR` is ___ 19.3

Which measured SPOT peptide array binding signal intensity value corresponds to `VDFTLPPPPPPPGLD` ? 2.33

Value lookup for SPOT peptide array binding signal intensity; key = `NVLRKILEIPLHSFS` 0.833

// returns reported SPOT peptide array binding signal intensity for input `GAGERPRLVPRPINV` 91.3

# get_value(readout='SPOT peptide array binding signal intensity', item= `TKFRISLGLPVGAIM` ) 80.7

// lookup SPOT peptide array binding signal intensity for `ITHRLRISIPGITGR` 163

So what does the record say about SPOT peptide array binding signal intensity for `LSKRLPLRFPEHTSS` ? 231

Which SPOT peptide array binding signal intensity is reported for this binder? `APPPPPRRATPEKKP` 963

Item under review: `AGKRRLPLVRFKASD` . Reported SPOT peptide array binding signal intensity? 364

Entry `KIRRSSLMIPNPQQF` has what SPOT peptide array binding signal intensity? 40.2
